- Test system: HOP-62
- METHOD DESCRIPTION: NCI tumour cell line growth inhibition, 48 h
Calls of active or inactive are those of the source. Rule as the data show it: active = GI50 up to about 1.1 µM and inactive = higher.
Your reply should match one of these outcome classes. Yes for active, No for inactive

Here are 5 molecules together with their reported answers.
MOLECULE: CC1OC2OC3C(OCC(O)C3O)OC(=O)[C@]34CCC(C)(C)CC3C3=CCC5[C@@]6(C)C[C@H](O)[C@H](OC7OC(CO)C(O)C(O)C7OC7OCC(OC(=O)CC(C)(O)CC(=O)OC1C(OC1OC(CO)C(O)C(O)C1O)C2O)C(O)C7O)[C@@](C)(CO)C6CC[C@@]5(C)[C@]3(C)CC4 (stereo partly specified)
MEASURED TARGET: HOP-62
DISCRETE LABEL: No

MOLECULE: CN(C)c1ccccc1CC(c1c[nH]c2ccccc12)c1c[nH]c2ccccc12
MEASURED TARGET: HOP-62
DISCRETE LABEL: No

MOLECULE: Cc1cc(C)n(CN(Cn2nc(C)cc2C)c2ccccc2)n1
MEASURED TARGET: HOP-62
DISCRETE LABEL: No

MOLECULE: N#Cc1c(N2CCCC2)nsc1NCc1ccccc1
MEASURED TARGET: HOP-62
DISCRETE LABEL: No

MOLECULE: CC1(C)OC(=O)C(C)(C)OC1=O
MEASURED TARGET: HOP-62
DISCRETE LABEL: No

GET /call?item= Nc1ncnc2c1ncn2C1OC(CO)C(O)C(O)C1O (stereo unspecified) returns the recorded outcome of this test.
No

GET /call?item= CCOC(=O)c1c2c(n(C)c1-c1ccccc1)C(=O)C(C)=CC2=O returns the recorded outcome of this test.
No

GET /call?item= C/C(=N\NC(=S)N(C)C)c1nc2cccnc2[nH]1 returns the recorded outcome of this test.
Yes

GET /call?item= COc1ccc(-c2cc(=O)c3cc(O)ccc3o2)c(OC)c1OC returns the recorded outcome of this test.
No

GET /call?item= CCN(CC)c1c(C(=O)/C=C/c2ccc(OC)cc2)c(-c2ccccc2)nn(C)c1=O returns the recorded outcome of this test.
No

GET /call?item= COc1cc(/C=C/c2sc3ccccc3[n+]2C)ccc1N(C)C returns the recorded outcome of this test.
No

---

- Test system: MCF7
- METHOD DESCRIPTION: NCI tumour cell line growth inhibition, 48 h
Active and inactive are the calls of the source. No stated cut-off is given here; in the data, active = GI50 up to about 1.1 µM and inactive = higher.
Your reply should match one of these outcome classes. 1 (yes) = active, 0 (no) = inactive

Here are 3 molecules together with their reported answers.
MOLECULE: [O-]c1c2cc(-[n+]3c(-c4ccccc4)cc(-c4ccccc4)cc3-c3ccccc3)cc1CO[C@@H](c1ccccc1)[C@H](c1ccccc1)OCCOCCO[C@@H](c1ccccc1)[C@H](c1ccccc1)OC2
MEASURED TARGET: MCF7
DISCRETE LABEL: 1 (yes)

MOLECULE: CC(C)c1cc2c(cc1S(=O)(=O)O)[C@@]1(C)CCC[C@@](C)(C(=O)O)C1CC2 (some centres undefined)
MEASURED TARGET: MCF7
DISCRETE LABEL: 0 (no)

MOLECULE: COC(CC1(CCNc2ccccc2)C(=O)N(COCC[Si](C)(C)C)c2ccccc21)OC (centres undefined)
MEASURED TARGET: MCF7
DISCRETE LABEL: 0 (no)

GET /call?item= Nc1ncnc2oc(-c3cccs3)nc12 returns the recorded outcome of this test.
0 (no)

GET /call?item= COc1ccc(OC)c(NC(=O)c2c(Cl)c(Cl)c(Cl)c(Cl)c2-c2nc3ccccc3[nH]2)c1 returns the recorded outcome of this test.
0 (no)

GET /call?item= Cc1nnc2n1N=C(c1cc(F)c(Cl)cc1Cl)/C(=C/c1ccc3c(c1)OCO3)S2 returns the recorded outcome of this test.
0 (no)

GET /call?item= CC1CCOc2ccc(cc2)/C=N\c2ccc(cc2)CCc2ccc(cc2)/N=C\c2ccc(cc2)OCC1 returns the recorded outcome of this test.
0 (no)

GET /call?item= CC(CC=O)Nc1nn2c(=O)c3ccccc3nc2s1 (centres undefined) returns the recorded outcome of this test.
0 (no)

GET /call?item= O=C(CNc1ccccc1[N+](=O)[O-])Nn1cnc2ccc(S(=O)(=O)Nc3ccccc3[N+](=O)[O-])cc2c1=O returns the recorded outcome of this test.
0 (no)

GET /call?item= CC(C)(C)c1cc[n+](C[n+]2ccc(C(C)(C)C)cc2)cc1 returns the recorded outcome of this test.
0 (no)
